- test system: human CYP11B1 (Homo sapiens)
- Sequence (P15538 25-503): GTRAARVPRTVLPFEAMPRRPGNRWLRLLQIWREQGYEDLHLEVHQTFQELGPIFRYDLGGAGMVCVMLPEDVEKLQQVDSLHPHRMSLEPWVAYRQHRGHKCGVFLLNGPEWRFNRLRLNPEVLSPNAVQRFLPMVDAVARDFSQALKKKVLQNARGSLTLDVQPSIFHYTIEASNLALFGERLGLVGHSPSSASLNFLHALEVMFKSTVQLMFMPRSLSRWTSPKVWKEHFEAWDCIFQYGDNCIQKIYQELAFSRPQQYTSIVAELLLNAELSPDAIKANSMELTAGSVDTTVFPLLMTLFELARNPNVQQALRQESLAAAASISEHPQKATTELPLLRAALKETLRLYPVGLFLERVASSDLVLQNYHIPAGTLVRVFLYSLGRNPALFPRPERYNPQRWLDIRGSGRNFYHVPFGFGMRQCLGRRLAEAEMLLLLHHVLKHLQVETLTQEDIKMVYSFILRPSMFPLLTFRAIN
- test: G-402 cellular enzyme assay, human CYP11B1 (cortisol release, HTRF)
- condition info: G-402 cells, 1 μM Deoxycortisol
property name: pEC50
Notebook: values listed as pEC50 are -log10 of the concentration (mol/L).

INPUT: I would be grateful if you could share the reported pEC50 for CC(C)Oc1cncc(N2CCc3cc(Cl)ccc3C2=O)c1 [Example 11] .
OUTPUT: 6.59

INPUT: Also need COCc1c(F)cncc1N1CCc2cc(Cl)ccc2C1=O [Example 75] , thanks.
OUTPUT: 5.56

INPUT: # iterate: CCS(=O)(=O)N1CC(Oc2cncc(N3C(=O)c4ccc(Cl)cc4C3(C)C)c2)C1 [Example 453]
OUTPUT: 6.06

INPUT: # iterate: CC1(C)c2cc(Cl)ccc2C(=O)N1c1cnccc1Cl [Example 285]
OUTPUT: 6.45

INPUT: Consider next the compound COC(c1cncc(N2CCc3cc(Cl)ccc3C2=O)c1)C1CC1 (stereo not drawn) [Example 21] in the same way.
OUTPUT: 6.58

INPUT: Follow-up item: O=C(Nc1cncc(N2CCc3cc(Cl)ccc3C2=O)c1)Nc1cccc(C(F)(F)F)c1 [Example 251]
OUTPUT: 4.80

INPUT: Now the same for CC1(C)c2nc(Cl)ccc2C(=O)N1c1cncc(F)c1 [Example 292]
OUTPUT: 4.44

INPUT: Same question for NCc1cncc(N2CCc3cc(Cl)ccc3C2=O)c1 [Example 192] please.
OUTPUT: 4.99

INPUT: CC(C)N1CCN(Cc2cncc(N3C(=O)c4ccc(Cl)cc4C3(C)C)c2)C1=O [Example 416] , same question.
OUTPUT: 6.14
